All values here come from ChEMBL document CHEMBL5346978.

- target_system: CYP2C9 (Homo sapiens, UniProt P11712)
- Sequence (P11712 whole entry): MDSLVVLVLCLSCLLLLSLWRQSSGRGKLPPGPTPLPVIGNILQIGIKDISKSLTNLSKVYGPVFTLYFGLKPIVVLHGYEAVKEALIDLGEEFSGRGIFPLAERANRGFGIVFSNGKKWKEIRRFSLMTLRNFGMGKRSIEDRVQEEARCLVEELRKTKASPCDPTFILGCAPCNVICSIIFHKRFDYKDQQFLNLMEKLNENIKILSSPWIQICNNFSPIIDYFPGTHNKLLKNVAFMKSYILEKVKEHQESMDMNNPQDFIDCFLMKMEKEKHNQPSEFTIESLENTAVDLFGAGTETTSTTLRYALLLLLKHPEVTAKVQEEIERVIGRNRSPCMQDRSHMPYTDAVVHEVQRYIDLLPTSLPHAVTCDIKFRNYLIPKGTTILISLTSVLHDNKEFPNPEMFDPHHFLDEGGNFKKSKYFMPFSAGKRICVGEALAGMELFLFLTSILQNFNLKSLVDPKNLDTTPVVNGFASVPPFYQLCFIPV
- test_summary: Inhibition of CYP2C9 in human liver microsomes using diclofenac as substrate assessed as residual activity at 10 uM preincubated for 5 mins followed by substrate addition and measured after 15 mins in presence of NADPH by LC-MS/MS analysis
- Format: ADME, Microsome
- condition: probe diclofenac, time 20 min, read-out: Activity
Overview of recorded activity at 0.25 h, 10 µM for various compounds
Give your result in % as a bare value.

{"compound": "CC(C)Oc1ccc(COc2ccc3c(c2)CCN(S(=O)(=O)CCC(=O)O)C3C)cc1C#N (configuration not stated)", "value_observed": 78.4}
{"compound": "CC(C)Oc1ccc(COc2ccc3c(n2)CCN(S(=O)(=O)CCC(=O)O)C3)cc1C#N", "value_observed": 80.1}
{"compound": "CC(C)Oc1ccc(COc2ccc3c(c2)CCCN(S(=O)(=O)CC(=O)O)C3)cc1C#N", "value_observed": 86.1}

activity at 0.25 h, 10 µM in this record for `CC(C)Oc1ccc(COc2ccc3c(c2)OCCN(S(=O)(=O)CCC(=O)O)C3)cc1C#N` : 70.7

For this compound ( `CC(C)Oc1ccc(COc2ccc3c(c2)CCN(CCC(=O)O)C3)cc1C#N` ), measured activity at 0.25 h, 10 µM is 92.2

Lab note: `CC(C)Oc1ccc(COc2ccc3c(c2)OCCN(S(=O)(=O)CC(=O)O)C3)cc1C#N` gave activity at 0.25 h, 10 µM of 87

###

- target_system: Sphingosine 1-phosphate receptor 1 (Homo sapiens)
- Sequence (P21453 whole entry): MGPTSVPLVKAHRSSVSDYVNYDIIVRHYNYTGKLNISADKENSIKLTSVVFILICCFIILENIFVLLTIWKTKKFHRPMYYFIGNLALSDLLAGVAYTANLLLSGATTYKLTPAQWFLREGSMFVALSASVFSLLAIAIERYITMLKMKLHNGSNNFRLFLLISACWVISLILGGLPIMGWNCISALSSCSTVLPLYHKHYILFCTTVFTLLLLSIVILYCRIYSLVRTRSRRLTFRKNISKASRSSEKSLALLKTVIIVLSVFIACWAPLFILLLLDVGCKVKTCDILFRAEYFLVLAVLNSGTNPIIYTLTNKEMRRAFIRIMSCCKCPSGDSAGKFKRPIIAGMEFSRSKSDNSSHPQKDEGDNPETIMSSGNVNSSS
- test_summary: Agonist activity at S1P1 (unknown origin) expressed in human HEK293/Galpha15 cells assessed as Ca2+ activation at 1 uM measured for 2 hrs by FLIPR analysis relative to control
- Format: functional, cell-based
In this section we review reported Activity values for a set of compounds.
Report as a plain number; the unit % is understood.

// known answers, use as guide
{"compound": "CC(C)Oc1ccc(COc2ccc3c(c2)CCN(CCCCO)C3)cc1C#N", "display_unit": "%", "Activity": 3}
{"compound": "COC(=O)CCS(=O)(=O)N1CCc2cc(NC(=O)c3ccc(OC(C)C)c(C#N)c3)ccc2C1", "display_unit": "%", "Activity": 7}
{"compound": "CC(C)Oc1ccc(COc2ccc3c(c2)CCN(C(=O)CCO)C3)cc1C#N", "display_unit": "%", "Activity": 36}
{"compound": "CC(C)Oc1ccc(C(=O)Nc2ccc3c(c2)CCN(S(=O)(=O)CCC(=O)O)C3)cc1C#N", "display_unit": "%", "Activity": 18}
{"compound": "COC(=O)CCS(=O)(=O)N1CCc2cc(Nc3ccc(OC(C)C)c(C#N)c3)ccc2C1", "display_unit": "%", "Activity": 5}

So for `COC(=O)CCS(=O)(=O)N1CCc2cc(N(C)Cc3ccc(OC(C)C)c(C#N)c3)ccc2C1` , the logged Activity turned out to be 12

Input `COC(=O)CCCN1CCc2cc(OCc3ccc(OC(C)C)c(C#N)c3)ccc2C1` . Output Activity: 7

Record `CC(C)Oc1ccc(COc2ccc3c(c2)CCN(C(=O)CCNS(C)(=O)=O)C3)cc1C#N` . Reported Activity: 23

Activity reading for `COC(=O)CN1CCc2cc(OCc3ccc(OC(C)C)c(C#N)c3)ccc2C1` : 13

###

- test_summary: Microsomal stability in mouse liver microsomes assessed as parent compound remaining preincubated for 5 mins followed by NADPH addition measured after 60 mins by LC-MS/MS analysis
- Type: ADME, Microsome
- condition: time 65 min, read-out: Stability
Recorded measurements of remaining at 1 h, one per entry
Please give a number only; it is taken to be in %.

For orientation, consider the following solved cases.
{"compound": "CC(C)Oc1ccc(COc2ccc3c(c2)CCN(S(=O)(=O)CCC(=O)O)C3C)cc1C#N (stereo not given)", "remaining at 1 h [%]": 89.7}
{"compound": "CC(C)Oc1ccc(COc2ccc3c(c2)OCCN(S(=O)(=O)CC(=O)O)C3)cc1C#N", "remaining at 1 h [%]": 87.7}
{"compound": "CC(C)Oc1ccc(COc2ccc3c(c2)CCCN(S(=O)(=O)CCO)C3)cc1C#N", "remaining at 1 h [%]": 10.7}
{"compound": "CC(C)Oc1ccc(COc2ccc3c(c2)OCCN(S(=O)(=O)CCCO)C3)cc1C#N", "remaining at 1 h [%]": 9.3}

Next:
Note to self: remaining at 1 h recorded for `CC(C)Oc1ccc(COc2ccc3c(c2)CCCN(S(=O)(=O)CCCO)C3)cc1C#N` was 8.7

###

- test_summary: Microsomal stability in rat liver microsomes assessed as parent compound remaining preincubated for 5 mins followed by NADPH addition measured after 60 mins by LC-MS/MS analysis
- Assay type: ADME, Microsome
- condition: time 65 min, read-out: Stability
parameter_measured: remaining at 1 h (%)
Quick note: give the figure in %, leave out the unit.

{"molecule": "CC(C)Oc1ccc(COc2ccc3c(c2)CCN(S(=O)(=O)CCC(=O)O)C3C)cc1C#N (stereo not drawn)", "parameter_measured": "remaining at 1 h", "display_unit": "%", "value_observed": 90.8}

molecule `CC(C)Oc1ccc(COc2ccc3c(c2)CCCN(S(=O)(=O)CCO)C3)cc1C#N` , remaining at 1 h observed: 13.1

Form: molecule = `CC(C)Oc1ccc(COc2ccc3c(c2)CCCN(S(=O)(=O)CCC(=O)O)C3)cc1C#N` ; remaining at 1 h = 62.2

###

- test_summary: Microsomal stability in human liver microsomes assessed as parent compound remaining preincubated for 5 mins followed by NADPH addition measured after 30 mins by LC-MS/MS analysis
- Assay type: ADME, Microsome
- condition: time 35 min, read-out: Stability
Recorded measurements of remaining at 0.5 h, one per entry
// return numeric value only (unit: %, not printed)

Answered cases to consult:
{"line_notation": "CC(C)Oc1ccc(COc2ccc3c(c2)CCN(S(=O)(=O)CCC(=O)O)C3)cc1C#N", "remaining at 0.5 h (%)": 90.2}
{"line_notation": "CC(C)Oc1ccc(COc2ccc3c(c2)CCN(S(=O)(=O)CCC(=O)N(C)C)C3)cc1C#N", "remaining at 0.5 h (%)": 18.9}
{"line_notation": "CC(C)Oc1ccc(COc2ccc3c(c2)CCN(C(=O)CCC(=O)O)C3)cc1C#N", "remaining at 0.5 h (%)": 94.3}
{"line_notation": "CC(C)Oc1ccc(COc2ccc3c(c2)CCN(C(=O)CCNS(C)(=O)=O)C3)cc1C#N", "remaining at 0.5 h (%)": 29.7}
{"line_notation": "CC(C)Oc1ccc(COc2ccc3c(c2)CCN(CCC(=O)O)C3)cc1C#N", "remaining at 0.5 h (%)": 99}

Next up:
Note to self: remaining at 0.5 h recorded for `CC(C)Oc1ccc(COc2ccc3c(n2)CCN(S(=O)(=O)CCC(=O)O)C3)cc1C#N` was 96

###

- target_system: Sphingosine 1-phosphate receptor 1 (Homo sapiens)
- test_summary: Agonist activity at S1P1 (unknown origin) expressed in PathHunter CHO-K1 EDG1 beta-arrestin cells assessed as beta-arrestin2 recruitment incubated for 90 mins by chemiluminescence based assay
- Type: functional, cell-based
pEC50: −log10 of the molar value.
The label depends only on pEC50: MET if it is at least 7, NOT MET if it is smaller.

Determine whether measured pEC50 meets or exceeds 7 for `CC(C)Oc1ccc(COc2ccc3c(c2)CCCN(S(=O)(=O)CC(=O)O)C3)cc1C#N`
MET

Say whether `COC(=O)CCS(=O)(=O)N1CCc2cc(OCc3ccc(OC(C)C)c(C#N)c3)ccc2C1` shows pEC50 of 7 or more.
MET

Record `CC(C)Oc1ccc(COc2ccc3c(c2)CCCN(S(=O)(=O)CCC(=O)O)C3)cc1C#N` ; criterion: pEC50 no lower than 7. Met?
MET

Reported pEC50 reaches at least 7 for `CC(C)Oc1ccc(COc2ccc3c(c2)OCCN(S(=O)(=O)CCO)C3)cc1C#N` ?
MET

Given `CNC(=O)CCC(=O)N1CCc2cc(OCc3ccc(OC(C)C)c(C#N)c3)ccc2C1` , state whether its pEC50 is at least 7.
NOT MET

Decide: pEC50 of `CC(C)Oc1ccc(COc2ccc3c(n2)CCN(S(=O)(=O)CCC(=O)O)C3)cc1C#N` >= 7?
NOT MET

Check if pEC50 >= 7 (inclusive). Item: `CC(=O)NCCCC(=O)N1CCc2cc(OCc3ccc(OC(C)C)c(C#N)c3)ccc2C1`
NOT MET

Please check the record `CNC(=O)CCS(=O)(=O)N1CCc2cc(OCc3ccc(OC(C)C)c(C#N)c3)ccc2C1` and state if its pEC50 is at or above 7.
NOT MET

Could you tell me if the measured pEC50 of `CC(C)Oc1ccc(COc2ccc3c(c2)CCN(C(=O)CCC(=O)N(C)C)C3)cc1C#N` reaches 7 or more?
NOT MET

Textbook exercise: given the entry `CC(C)Oc1ccc(COc2ccc3c(c2)CCN(C(=O)CCNS(C)(=O)=O)C3)cc1C#N` , state whether its pEC50 is greater than or equal to 7.
NOT MET

In plain terms: is recorded pEC50 at least 7 for `CC(C)Oc1ccc(COc2ccc3c(c2)OCCN(S(=O)(=O)CC(=O)O)C3)cc1C#N` ?
MET
